B1: library; a variant is named by its letters at N, in order (parent)
chain: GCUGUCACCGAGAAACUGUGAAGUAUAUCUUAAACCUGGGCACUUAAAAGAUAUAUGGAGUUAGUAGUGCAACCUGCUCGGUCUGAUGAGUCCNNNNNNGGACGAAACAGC

# Variants of: B1
# test-method-notes: FACS-Seq fitted mean relative fluorescence mCherry/BFP with ligand (log10 relative fluorescence); HEK293T; ligand: cyclic di-GMP (c-di-GMP-II aptamer); ligand concentration (+) FACS-Seq: 1 mM; higher = higher reporter protein expression
# study-conditions: ligand present: yes
Give FACS-Seq fitted mean (log10) for every item shown.
I'd appreciate a reply containing only the number, no unit.

// query Report FACS-Seq fitted mean (log10) for CCAAGA please.
// result -0.208

// query Report FACS-Seq fitted mean (log10) for CGGACA please.
// result -0.265

// query Report FACS-Seq fitted mean (log10) for GACAAG please.
// result -0.0999

// query Report FACS-Seq fitted mean (log10) for ACUAAU please.
// result -0.433

// query Report FACS-Seq fitted mean (log10) for CCCCCA please.
// result 0.187

// query Report FACS-Seq fitted mean (log10) for ACCUCC please.
// result 0.281

// query Report FACS-Seq fitted mean (log10) for CUUGGA please.
// result -0.107

// query Report FACS-Seq fitted mean (log10) for GCAACA please.
// result -0.56

// query Report FACS-Seq fitted mean (log10) for GCCCUA please.
// result 0.0262

// query Report FACS-Seq fitted mean (log10) for AAUGUG please.
// result 0.206

// query Report FACS-Seq fitted mean (log10) for CUCAUA please.
// result -0.298

// query Report FACS-Seq fitted mean (log10) for CAAAGA please.
// result 0.00425

// query Report FACS-Seq fitted mean (log10) for CGUGAU please.
// result -0.173

// query Report FACS-Seq fitted mean (log10) for CGGCAU please.
// result -0.289

// query Report FACS-Seq fitted mean (log10) for CAGCAA please.
// result -0.25

// query Report FACS-Seq fitted mean (log10) for GCCACC please.
// result 0.0347

// query Report FACS-Seq fitted mean (log10) for GACUUA please.
// result -0.219

// query Report FACS-Seq fitted mean (log10) for AACCCC please.
// result 0.263

// query Report FACS-Seq fitted mean (log10) for GUUAGG please.
// result 0.171

// query Report FACS-Seq fitted mean (log10) for UAGUUG please.
// result 0.29

// query Report FACS-Seq fitted mean (log10) for CGGGGC please.
// result 0.215

// query Report FACS-Seq fitted mean (log10) for GAGCGC please.
// result -0.101
